This collection of values is drawn from PubChem BioAssay AID652002.

# protocol_notes: compound enhancement of TRAIL-induced cell killing – NB7 cells plus caspase-8, luminescence, panel, dose response (AID 652002)
# measurement_parameters: NB7 neuroblastoma +caspase-8, no TRAIL, compound-alone cytotoxicity counter-screen, luminescence viability; NB7+Caspase-8; run 2; single replicate panel EC50
Please respond with yes when measured EC50 is strictly beneath 10 µM, and with no in all other cases.

Completed entries (count: 10):
Find out if reported EC50 for "COc1cc(NC(=O)c2[nH]cnc2C(N)=O)cc(C(=O)Nc2cccc(C(F)(F)F)c2)c1" is less than 10 µM
no

Find out if reported EC50 for "Cc1ccc(S(=O)(=O)Nc2ccccc2C(=O)Nc2nc(-c3ccc(F)cc3)cs2)cc1" is less than 10 µM
yes

Find out if reported EC50 for "O=C(NC(=S)Nc1nc2c(s1)CCCC2)c1ccccc1" is less than 10 µM
no

Find out if reported EC50 for "CCOC(=O)C(=C1Nc2ccccc2N1)n1c(-c2cccnc2)nc2ccccc21" is less than 10 µM
no

Find out if reported EC50 for "Cc1nn(-c2ccccc2)c2nc(N)c(C#N)c(-c3ccc(F)cc3)c12" is less than 10 µM
no

Find out if reported EC50 for "Cc1ccc(NC(=O)c2cc3ccccc3o2)nc1" is less than 10 µM
no

Find out if reported EC50 for "O=C1c2ccc3c4c(ccc(c24)C(=O)N1c1cccc(O)c1)C(=O)N(c1cccc(O)c1)C3=O" is less than 10 µM
no

Find out if reported EC50 for "O=c1[nH]c(N/N=C\c2ccc3c(c2)OCO3)nc2ccccc12" is less than 10 µM
no

Find out if reported EC50 for "Cc1cc2nc(-c3ccc(SCC(=O)Nc4nccs4)nc3)[nH]c2cc1C" is less than 10 µM
no

Find out if reported EC50 for "Cn1c(=O)c2c(SCC(=O)Nc3ccccc3F)nc(C3CC3)nc2n(C)c1=O" is less than 10 µM
no

More entries:
Find out if reported EC50 for "CC(C)C[C@H](NC(=O)c1nc[nH]c1C(=O)N[C@@H](CCCCNC(=O)OC(C)(C)C)C(=O)OC(C)(C)C)C(=O)OCc1ccccc1" is less than 10 µM
no

Find out if reported EC50 for "CCOC(=O)c1sc(NC(=O)c2cc(-c3ccccc3C)nc3ccccc23)c(C#N)c1C" is less than 10 µM
no

Find out if reported EC50 for "Cc1ccc(N=C/C(C(=O)C(F)(F)F)=C(\O)c2cccs2)cc1" is less than 10 µM
yes
